Where do these numbers come from? They come from patent US8513271B2.

# Test system: mu opioid receptor (Rattus norvegicus, UniProt P33535)
# Construct: the forebrains were homogenized in Tris buffer in a Teflon®-glass homogenizer; from tissue; host or cells: forebrain of male Wistar rats, particulate (membrane) preparation
# Sequence (P33535 whole entry): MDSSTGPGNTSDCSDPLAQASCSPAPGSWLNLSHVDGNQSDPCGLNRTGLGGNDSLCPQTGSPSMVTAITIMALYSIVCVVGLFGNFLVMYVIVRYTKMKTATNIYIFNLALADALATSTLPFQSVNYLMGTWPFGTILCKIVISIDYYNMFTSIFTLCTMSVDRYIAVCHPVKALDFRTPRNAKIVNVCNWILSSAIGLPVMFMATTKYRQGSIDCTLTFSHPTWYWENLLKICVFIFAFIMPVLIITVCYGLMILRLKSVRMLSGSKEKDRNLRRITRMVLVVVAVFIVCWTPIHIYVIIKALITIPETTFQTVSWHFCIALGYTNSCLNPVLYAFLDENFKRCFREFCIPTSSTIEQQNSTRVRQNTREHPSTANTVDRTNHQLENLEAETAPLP
# Protocol details: Rat brain mu opioid receptor binding assay
# Measurement context: rat forebrain, [3H]DAMGO ligand; read-out: μ-binding Ki
pKi by entry:
Scale for pKi: -log10 of concentration given in mol/L; no unit attached.

Observe how each entry below is paired with its result.
Sample smiles | pKi
COc1ccc(Oc2nc(-c3cccc(O)c3)ncc2NC[C@@H]2CCCN2)cc1 | 6.38
COc1ccc(Oc2nc(-c3cnc(O)nc3O)ncc2NC[C@@H]2CCCN2)cc1 | 4.81
COc1ccc(Oc2nc(-c3cnc4ccccc4c3)ncc2NC[C@@H]2CCCN2)cc1 | 6.84
COc1ccc(Oc2nc(-c3cccc(OC(F)(F)F)c3)ncc2NC[C@@H]2CCCN2)cc1 | 5.99
COc1ccc(Oc2nc(-c3cnc(N4CCOCC4)nc3)ncc2NC[C@@H]2CCCN2)cc1 | 6.17
CCN(CC)C(=O)c1cccc(-c2ncc(NC[C@@H]3CCCN3)c(Oc3ccc(OC)cc3)n2)c1 | 6.08
COc1ccc(Oc2nc(-c3cnc(N4CCN(C)CC4)nc3)ncc2NC[C@@H]2CCCN2)cc1 | 6.47

--- query ---
I have this compound here, `N#Cc1cncc(-c2ncc(NC[C@@H]3CCCN3)c(Oc3ccc4ncsc4c3)n2)c1` , and I need its recorded pKi.
5.93

====

Entries annotated with measured GTPγS δ-opioid receptor Rel Efficacy
# Test system: delta opioid receptor (Mus musculus, UniProt P32300)
# Construct: NG108-15 cell membranes were purchased from Applied Cell Sciences (Rockville, Md.); host or cells: NG108-15 cell membranes
# Sequence (P32300 whole entry): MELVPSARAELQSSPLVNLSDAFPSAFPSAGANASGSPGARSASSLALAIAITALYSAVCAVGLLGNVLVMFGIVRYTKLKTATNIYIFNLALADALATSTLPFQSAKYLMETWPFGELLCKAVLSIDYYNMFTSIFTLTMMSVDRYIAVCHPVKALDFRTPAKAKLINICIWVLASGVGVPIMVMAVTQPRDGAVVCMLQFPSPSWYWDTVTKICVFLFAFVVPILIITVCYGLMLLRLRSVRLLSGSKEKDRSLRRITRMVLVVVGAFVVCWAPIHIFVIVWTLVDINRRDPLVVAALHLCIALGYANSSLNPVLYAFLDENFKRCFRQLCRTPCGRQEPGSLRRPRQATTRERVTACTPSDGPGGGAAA
# Protocol details: [35S]GTPγS binding assay in NG108-15 cell membranes (delta opioid functional assay), 200 nM screen
# Assay type: biochemical
# Measurement context: relative efficacy from dose response; NG108-15 cell membranes
Lab note: record the figure alone, no unit after it.

Example cases with answers are listed next.
Compound | Test system | Assay metric | Result number
COc1ccc(Oc2nc(-c3cncc(C)c3)ncc2NCCN)cc1 [Cpd 296] | delta opioid receptor (Mus musculus, UniProt P32300) | GTPγS δ-opioid receptor Rel Efficacy | 0.938
CCOc1ncc(-c2ncc(NC[C@@H]3CCCN3)c(Oc3ccc(OC)cc3)n2)cn1 [Cpd 60] | delta opioid receptor (Mus musculus, UniProt P32300) | GTPγS δ-opioid receptor Rel Efficacy | 0.926

Quick check: GTPγS δ-opioid receptor Rel Efficacy of COc1ccc(Oc2nc(-c3cncc(C#N)c3)ncc2NC[C@@H]2C[C@@H](F)CN2)cc1 [Cpd 134] ?
1.087

For COc1ccc(Oc2nc(-c3cncc(SC)c3)ncc2N2CCNCC2)cc1 [Cpd 341] , what is its reported GTPγS δ-opioid receptor Rel Efficacy?
0.788

Report GTPγS δ-opioid receptor Rel Efficacy for COc1ccc(Oc2nc(-c3cncc(C#N)c3)ncc2NC[C@@H]2CCCN2)cc1F [Cpd 132] please.
1.042

====

# Test system: delta opioid receptor (Mus musculus, UniProt P32300)
# Construct: NG108-15 cell membranes were purchased from Applied Cell Sciences (Rockville, Md.); host or cells: NG108-15 cell membranes
# Protocol details: [35S]GTPγS binding assay in NG108-15 cell membranes (delta opioid functional assay), 200 nM screen
# Type: biochemical
# Measurement context: relative efficacy from dose response; NG108-15 cell membranes
Assay metric: GTPγS δ-opioid receptor Rel Efficacy
Please reply with the value in numeric form only.

// lookup GTPγS δ-opioid receptor Rel Efficacy for `COc1ccc(Oc2nc(-c3cncc(OC)c3)ncc2N[C@H]2CCNC2)cc1`
1.004

Looking for the measured GTPγS δ-opioid receptor Rel Efficacy of `N#Cc1cncc(-c2ncc(NC[C@@H]3CCCN3)c(Oc3ccc(CO)cc3)n2)c1` , can you help?
1.066

Looking for the measured GTPγS δ-opioid receptor Rel Efficacy of `COc1ccc(Oc2nc(-c3cnc(C#N)nc3)ncc2NC[C@@H]2CCCN2)cc1` , can you help?
1.010
